Where do the numbers come from? From paper PMC5540273.

// values below are reported %Inh
# System: VPS34
# Construct: gene PIK3C3
# Protocol conditions: concentration: 1 μM, replicates: in singlicate; n = 1;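 also: KINOMEscan kinase panel screen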
Measured metric: %Inh (%)

Compound	Measured metric	Assay value
COc1ccc(CSc2nnc(-c3ccc4ncsc4c3)o2)cc1C(F)(F)F	%Inh	0
NS(=O)(=O)c1cccc(N/C=C2\C(=O)Nc3ccc(S(=O)(=O)Cc4c(Cl)cccc4Cl)cc32)c1 [GSK398099]	%Inh	0
O=c1cc(N2CCOCC2)nc2n(Cc3ccccc3F)ccn12 [GSK2297428]	%Inh	94
O=C(Nc1n[nH]c2nc(-c3ccco3)c(Br)cc12)C1CCN(Cc2ccccc2)C1.O=C(O)[C@H](O)[C@@H](O)C(=O)O (stereo not drawn) [SB-742034]	%Inh	0
Cc1c(Cn2c(C)c(C)n3c(=O)cc(N4CCOCC4)nc23)cccc1C(F)(F)F [GSK2328680]	%Inh	20
Cl.Cl.Cl.N#Cc1ccc(CCNc2nccc(-c3cccc(CN4CCNCC4)c3)n2)cc1 [GSK2137462]	%Inh	7
COc1cc2ncnc(Nc3cccc(Br)c3)c2cc1OC.Cl [GI230329]	%Inh	41
CCn1c(-c2c(N)noc2C)nc2cnccc21 [SB-737856]	%Inh	0
CNc1nc(-c2ccc3c(N)n[nH]c3c2)cc(N2C[C@@H](C(=O)Nc3ccccc3)CC[C@H]2C)n1 [GSK2298859]	%Inh	7

---

# Test system: TLK1
# Protocol conditions: concentration: 1 μM, replicates: in singlicate; n = 1

Molecule	Tested on	Unit annotation	%Inh
COc1ccc(Nc2nccc(N3CCC(NC(=O)C(C)c4ccc(Cl)cc4)CC3)n2)cc1 (stereo not drawn) [GSK1379812]	TLK1	%	7
Cc1c(Cn2c(C)c(C)n3c(=O)cc(N4CCOCC4)nc23)cccc1C(F)(F)F [GSK2328680]	TLK1	%	0
CSc1ccc(-c2nc3n(c2-c2ccncc2)CCC3)cc1 [SKF-105561]	TLK1	%	31
COc1nccc(-c2c(-c3ccc(F)cc3)ncn2CCCN2CCOCC2)n1 [SB-282852]	TLK1	%	26
Nc1nccc(-c2c(-c3ccc(F)cc3)ncn2C2CCN(Cc3ccccc3)CC2)n1 [SB-219980]	TLK1	%	0
COc1ccc2cc(-c3nc(-c4ccccc4C(C)C)[nH]c3-c3ccncc3)ccc2c1 [SB-660566]	TLK1	%	0
O=C1NC(=O)C(c2ccc(Cl)cc2)=C1Nc1cccc(Cl)c1 [SB-317651]	TLK1	%	12
CS(=O)(=O)CCNCc1nc(-c2ccc3ncnc(Nc4ccc5c(cnn5Cc5ccccc5)c4)c3c2)cs1.Cl.Cl [GW569716]	TLK1	%	0
Cn1cncc1C(=O)NC1CCN(c2ccnc(Nc3ccc(F)cc3)n2)C1 (stereo not drawn) [GSK1379717]	TLK1	%	18
O=C(Nc1n[nH]c2nc(-c3cccs3)c(Br)cc12)C1CCCC1 [SB-743341]	TLK1	%	0
O=C1NC(=O)C(c2ccc(Cl)cc2)=C1Nc1ccc(O)cc1 [SB-340867]	TLK1	%	10
COc1ccc(Nc2nccc(NCCNC(=O)Nc3cc(C)ccc3C)n2)cc1 [GSK1379899]	TLK1	%	0
FC(F)(F)c1ccccc1-c1cc(-c2c[nH]nc2-c2ccccn2)ccn1 [GW679396]	TLK1	%	0
Cn1cncc1-c1cc2c(Nc3ccc(OCc4ccccc4)cc3)ncnc2cn1 [GW281179]	TLK1	%	18
CNc1nc(-c2ccc3c(N)n[nH]c3c2)cc(N2C[C@@H](C(=O)Nc3ccccc3)CC[C@H]2C)n1 [GSK2298859]	TLK1	%	0
CCn1c(-c2c(N)noc2C)nc2cnccc21 [SB-737856]	TLK1	%	0
Fc1ccc(-c2nc[nH]c2-c2ccncc2)cc1 [SB-217360]	TLK1	%	0
CCn1c(-c2ccccc2)nc2cnccc21 [SB-733416]	TLK1	%	0
Cc1cnc(N)c(/C=C/c2cncc(C(=O)NCCc3ccc(Cl)cc3Cl)c2)c1.Cl [GSK190937]	TLK1	%	0
COC(=O)c1cccc(NC(=O)NC2CCN(c3ccnc(Nc4ccc(F)cc4)n3)C2)c1 (stereo not drawn) [GSK1379725]	TLK1	%	0
COC(=O)C(Cc1ccccc1)NC(=O)NC1CCN(c2ccnc(Nc3ccc(F)cc3)n2)C1 (stereo not drawn) [GSK1379714]	TLK1	%	10
COc1ccc(CSc2nnc(-c3ccc4ncsc4c3)o2)cc1C(F)(F)F	TLK1	%	0
Nc1cccc(-c2ccc3c(N)n[nH]c3c2)n1 [GSK2192730]	TLK1	%	33
CC[C@@H]1CO[C@H](C(=O)Nc2ccccc2)CN1c1cc(-c2ccc3c(N)n[nH]c3c2)nc(NC)n1 [GSK2376236]	TLK1	%	21
Cc1ccccc1-c1cc(-c2c[nH]nc2-c2ccccn2)ccn1 [GW680061]	TLK1	%	0
Nc1ncnc2occ(-c3ccc4c(c3)CCN4C(=O)Cc3cc(F)ccc3F)c12 [GSK2645446]	TLK1	%	0
COc1cccc(C2=C(Nc3cc(Cl)c(O)c(Cl)c3)C(=O)NC2=O)c1 [SB-390767]	TLK1	%	0
Cc1ccc(-c2nc(Nc3ccncc3)c3ccccc3n2)s1 [GSK189015]	TLK1	%	0
O=C(Nc1n[nH]c2nc(-c3ccco3)c(Br)cc12)C1CCN(Cc2ccccc2)C1.O=C(O)[C@H](O)[C@@H](O)C(=O)O (stereo not drawn) [SB-742034]	TLK1	%	5
O=c1cc(N2CCOCC2)nc2n(Cc3cccc(Cl)c3Cl)c3ccccc3n12 [GSK2299009]	TLK1	%	2
CS(=O)(=O)CCNCc1nc(-c2ccc3ncnc(Nc4ccc(OCc5ccccc5)c(Cl)c4)c3c2)cs1.Cl [GW582764]	TLK1	%	0
Cc1ccccc1Cn1ccn2c(=O)cc(N3CCOCC3)nc12 [GSK2269905]	TLK1	%	0
O=C(Nc1n[nH]c2nc(-c3cccs3)c(Br)cc12)C1CC1 [SB-735297]	TLK1	%	5
Cc1ccc(NC(=O)c2ccc(Cl)cc2)cc1-c1ccc(C(=O)Nc2ccncc2)cc1 [GSK1398467]	TLK1	%	8
Cc1cccc2c(-c3ccncn3)c(-c3ccc(F)cc3)nn12 [GW515532]	TLK1	%	6
Cc1ccc(NC(=O)Nc2ccccc2)cc1-c1ccc(C(=O)Nc2ccncc2)cc1 [GSK1398471]	TLK1	%	19

---

# %Inh values compiled below
# System: EPHA5
# Protocol conditions: concentration: 1 μM, replicates: in singlicate; n = 1

Compound structure	Tested on	Unit annotation	%Inh
Cl.Cl.Cl.N#Cc1ccc(CCNc2nccc(-c3cccc(CN4CCNCC4)c3)n2)cc1	EPHA5	%	0
Cc1ccc(-c2nc(Nc3ccncc3)c3ccccc3n2)s1	EPHA5	%	100
COc1cc2ncnc(Nc3cccc(Br)c3)c2cc1OC.Cl	EPHA5	%	0
Cc1cnc(N)c(/C=C/c2cncc(C(=O)NCCc3ccc(Cl)cc3Cl)c2)c1.Cl	EPHA5	%	0
O=c1cc(N2CCOCC2)nc2n(Cc3ccccc3F)ccn12	EPHA5	%	0
COc1ccc(CSc2nnc(-c3ccc4ncsc4c3)o2)cc1C(F)(F)F	EPHA5	%	0
Cc1ccc(NC(=O)Nc2ccc(Cl)cc2)cc1-c1ccc(C(=O)Nc2ccncc2)cc1	EPHA5	%	2
Cc1ccc(NC(=O)Nc2ccccc2)cc1-c1ccc(C(=O)Nc2ccncc2)cc1	EPHA5	%	0
CCc1ccc(-c2ccc3c(c2)-c2n[nH]cc2S(=O)(=O)N3C)cc1	EPHA5	%	5
CS(=O)(=O)Cc1ccc(Nc2nccc(-c3c(-c4cccc(NC(=O)C5CCCCC5)c4)nn4ncccc34)n2)cc1	EPHA5	%	0
Cc1c(Cn2c3ccccc3n3c(=O)cc(N4CCOCC4)nc23)cccc1C(F)(F)F	EPHA5	%	0
COc1ccc(Nc2nccc(-c3ccc(NC(=O)c4cc5cc(F)ccc5[nH]4)cc3)n2)cc1	EPHA5	%	0

---

# Test system: HIPK1
# Protocol conditions: concentration: 1 μM, replicates: in singlicate; n = 1
compounds and their reported %Inh

Compound structure	Unit annotation	%Inh
CC(C)c1cc(-c2ccc3c(N)n[nH]c3c2)nc(N)n1	%	15
Cc1ccc(NC(=O)Nc2ccccc2)cc1-c1ccc(C(=O)Nc2ccncc2)cc1	%	0
COc1nccc(-c2c(-c3ccc(F)cc3)ncn2CCCN2CCOCC2)n1	%	46
Cc1ccccc1Cn1ccn2c(=O)cc(N3CCOCC3)nc12	%	0
Cc1ccc(-c2nc(Nc3ccncc3)c3ccccc3n2)s1	%	0
Cn1cnc2c(N)ncnc21	%	0
COc1ccc(CSc2nnc(-c3ccc4c(c3)CCO4)o2)cc1	%	9
Cn1cncc1-c1cc2c(Nc3ccc(OCc4ccccc4)cc3)ncnc2cn1	%	0
Cc1c(Cn2c(C)c(C)n3c(=O)cc(N4CCOCC4)nc23)cccc1C(F)(F)F	%	0

---

# Tested on: STK39
# Protocol conditions: concentration: 1 μM, replicates: in singlicate; n = 1
%Inh strictly under 10% means y; at 10% or over means n.

Compound	Tested on	Group label
Fc1ccc(-c2nc3n(c2-c2ccncc2)CCS3)cc1	STK39	y
COc1ccc(-c2coc3ccc(-c4nnc(C)o4)cc23)cc1	STK39	y
Fc1ccc(-c2nn3cccc(F)c3c2-c2ccncc2)cc1	STK39	y
CC(=O)c1cccc(NC(=O)NC2CCN(c3ccnc(Nc4ccc(F)cc4)n3)C2)c1 (stereo not drawn)	STK39	n
Nc1nccc(-c2c(-c3ccc(F)cc3)ncn2C2CCN(Cc3ccccc3)CC2)n1	STK39	y
COc1ccc(Nc2nccc(N3CCC(NC(=O)C(C)c4ccc(Cl)cc4)C3)n2)cc1 (stereo not drawn)	STK39	n
Cc1cnc(N)c(/C=C/c2cncc(C(=O)NCCc3ccc(Cl)cc3Cl)c2)c1.Cl	STK39	y
O=C1NC(=O)C(c2ccc(Cl)cc2)=C1Nc1cccc(Cl)c1	STK39	n
Cn1cnc2c(N)ncnc21	STK39	y
